Target: T1, human CD3 expressed on cells (human, UniProt P07766 23-207; P04234 22-171; P09693 23-182)
T1 construct: whole, on cells; CD3 complex on Jurkat cells and on human primary T cells
T1 sequence (P07766 23-207, chain 1 of 3): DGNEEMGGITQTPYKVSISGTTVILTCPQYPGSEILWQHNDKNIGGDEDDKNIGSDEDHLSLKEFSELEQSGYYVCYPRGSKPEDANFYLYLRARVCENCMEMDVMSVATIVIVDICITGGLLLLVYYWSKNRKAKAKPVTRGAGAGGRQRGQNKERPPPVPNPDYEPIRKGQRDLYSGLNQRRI
T1 sequence (P04234 22-171, chain 2 of 3): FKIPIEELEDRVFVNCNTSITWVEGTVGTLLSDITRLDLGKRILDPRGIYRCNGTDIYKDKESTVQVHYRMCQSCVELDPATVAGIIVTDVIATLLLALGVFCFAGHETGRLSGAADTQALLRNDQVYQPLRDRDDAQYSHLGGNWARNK
T1 sequence (P09693 23-182, chain 3 of 3): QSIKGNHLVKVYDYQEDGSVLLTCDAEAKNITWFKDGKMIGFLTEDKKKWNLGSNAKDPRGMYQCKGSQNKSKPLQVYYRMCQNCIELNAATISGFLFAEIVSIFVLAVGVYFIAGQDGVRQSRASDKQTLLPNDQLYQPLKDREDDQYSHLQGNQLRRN
Assay: flow cytometry, 25 nM
Reported Human primary T Cell Binding (FOI) values for a set of binders
reportedEndpoint: Human primary T Cell Binding (FOI)

INSERT INTO measurements (binder, unitlabel, assayvalue) VALUES
  ('mAb 123 (antibody, V domains shown) VH: DVQLVESGGGTVKTGGSLRLSCVASGFSFKKAWMNWVRQAPGKGLEWVGRIKKNSDDGTADYAAPVKGRFTISRDDSKRTLFLQMNSLQTEDTAVYYCTTLDSSSWFVGYYYMDVWGKGTTVTVSS VL: DIQMTQSPSSVSASVGDRVIITCRASQDINNWLAWYQQKPGKAPKLLIYTASSLQSGVPSRFSGSGSVSDFTLTIDSLQPEDFATYYCQQAHSLPITFGQGTRLEIK', 'FOI', 171),
  ('mAb 164 (antibody, V domains shown) VH: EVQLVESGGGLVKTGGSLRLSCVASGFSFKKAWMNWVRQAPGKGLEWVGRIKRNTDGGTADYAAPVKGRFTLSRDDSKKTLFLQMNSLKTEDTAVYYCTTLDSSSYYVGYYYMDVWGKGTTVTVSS VL: DIQMTQSPSSVSASVGDRVTITCRASQDIKNWLAWYQQKPGKAPKLLIYTASSLQSGVPSRFSGSGSGTDFTLTIGSLQPEDFATYYCQQAHSLPITFGQGTRLEIK', 'FOI', 237);
